Recorded values, source patent US9839642B2.

target.or.test.system: IMP-1 (Serratia marcescens, UniProt P52699)
Sequence (P52699 19-246, looked up, species assumed): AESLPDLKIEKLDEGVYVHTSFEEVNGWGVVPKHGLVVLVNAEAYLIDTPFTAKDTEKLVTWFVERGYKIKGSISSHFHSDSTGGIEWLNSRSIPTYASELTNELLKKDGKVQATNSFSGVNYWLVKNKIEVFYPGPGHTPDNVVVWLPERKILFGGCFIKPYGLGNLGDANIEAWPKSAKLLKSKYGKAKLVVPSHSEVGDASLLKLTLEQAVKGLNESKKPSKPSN
experimental.details: Enzyme activity: determination of IC50, fluorescence assay with CCF2-FA substrate
Assay type: biochemical
experimental.conditions: IMP-1 enzyme 2 pM, CCF2-FA 1.25 μM, 2 hours at 25° C.; read-out: IMP1 IC50

[
  {
    "compound": "CNC1CC=C(c2ccc(C[C@H](c3nn[nH]n3)[C@H](CC(C)C)C(=O)O)cc2F)CC1 (stereo partly shown) [Example 451, 2,2,2-trifluoroacetate]",
    "IC50 / nM": 27.2
  },
  {
    "compound": "CC(C)(C)[C@H](C(=O)O)[C@H](Cc1ccccc1)c1nnn[nH]1",
    "IC50 / nM": 35
  },
  {
    "compound": "CCC[C@H](C(=O)O)[C@H](Cc1cccc(-c2cccc(CN3CCCCC3)c2)c1)c1nn[nH]n1",
    "IC50 / nM": 1000
  },
  {
    "compound": "CC(C)C[C@H](C(=O)O)[C@H](Cc1ccc(CN(C)C)c(F)c1)c1nn[nH]n1.O=C(O)C(F)(F)F [Example 443, 2,2,2-trifluoroacetate]",
    "IC50 / nM": 1060
  },
  {
    "compound": "CCC[C@H](C(=O)O)[C@H](Cc1cccc(-c2ccc3c(c2)CCC(N)C3)c1)c1nn[nH]n1 (stereo partly shown)",
    "IC50 / nM": 310
  },
  {
    "compound": "CC(C)C[C@H](C(=O)O)[C@H](Cc1ccc(Oc2ccc(CC(C)(C)N)cc2)nc1)c1nn[nH]n1",
    "IC50 / nM": 180
  },
  {
    "compound": "CCC[C@H](C(=O)O)[C@H](Cc1ccccc1-c1cccnc1)c1nn[nH]n1",
    "IC50 / nM": 2800
  }
]
